- assayExplanation: Coupled enzyme assay (ADH, with and without MSAD): hydratase and hydratase/decarboxylase activity and product profile of Cg10062 and variants
- Format: biochemical
- measurementSetup: ACA 0.5 mM, pH 8; enzyme final concentration differs per variant (0.025-1.50 mg mL^−1), rates not directly comparable
Quick reference for Rate in the absence of MSAD among some molecules
Field: numeric (µM/min). Do not append units.

{"columns": ["molecule", "dataValue"],
 "data": [
  ["H28A: Cg10062 variant with H28A mutation, SEQ ID NO: 25 and 63 (protein, Cg10062(H28A) from Corynebacterium glutamicum codon-optimized for Escherichia coli) PTYTCWSQRIRISREAKQRIAEAITDAAHELAHAPKYLVQVIFNEVEPDSYFIAAQSASENHIWVQATIRSGRTEKQKEELLLRLTQEIALILGIPNEEVWVYITEIPGSNMTEYGRLLMEPGEEEKWFNSLPEGLRERLTELEGSSE", 4.5]
]}

Need Rate in the absence of MSAD, item E114A: Cg10062 variant with E114A mutation, SEQ ID NO: 32 and 70 (protein, Cg10062(E114A) from Corynebacterium glutamicum codon-optimized for Escherichia coli) PTYTCWSQRIRISREAKQRIAEAITDAHHELAHAPKYLVQVIFNEVEPDSYFIAAQSASENHIWVQATIRSGRTEKQKEELLLRLTQEIALILGIPNEEVWVYITEIPGSNMTAYGRLLMEPGEEEKWFNSLPEGLRERLTELEGSSE
11
